target of assay: hemagglutinin of H5N1 clade 1 strain HK/491/97 (influenza A virus HK/491/97 (H5N1))
protocol description: cell-based or functional assay
measured endpoint: Reciprocal neutralising titre of culture supernatant (reciprocal titre)

FLD84 (antibody, V domains shown) VH: QVQLQESGPGLVKPSETLSLICAVSGASISSSYWSWIRQPPGKGLEWIGYIYYSGVTKYNPSLKSRVTLSVDTSKNHFSLKLSYVTAADTAVYYCARNLPDIAVVTAVQDATPVWFDPWGPGTLVSVSS VL: DIQLTQSPSSLSASVGDRVTITCRASQGIITYLNWYQQKPGKAPKLLIYATYSLQNGVPSRFSGSGSGTDFTLTISSLQPEDFATYYCQQSYSSLMFTFGQGTKLDIK: 40
FLD132 (antibody, V domains shown) VH: EVQLVQSGAELKMPGESLKISCKASGYTFTNYWIGWVRQTPGKGLEWMGIIFPPDSQTSYSPSFQGQVTFSVDNSISVAYIQWSSLKASDTAIYYCARSGIFDWSAPLVEAFDIWGQGTVVTVSS VL: DIQLTQSPSFLSASVGDGVTITCRASQDIYIYLAWYQQKPGKAPKLLIYAASTLQGGVPSRFSGSGSGTEFTLTINNLQPEDFATYFCQQLNGYPLTFGGGTKVEIK: 2048
FLD93 (antibody, V domains shown) VH: WWQLVQSGAEVKKPGSSVKVSCKASGGTFSSYDISWVRQAPGQGLEWMGGIIPIYGTANYAQKFQGRVTITADESTSTAYMELSSLRSEDTAVYYCARAGGDSSGYYGALGRFFQHWGQGTLVTVSS VL: VIWMTQSPSLLSASTGDRVTISCRMSQGISSYLAWYQQKPGKAPELLIHTAYTLKSGVPSRFSGSGSGKDFTLTISGLQSEDFATYYCQQYYSFPYTFGQGTKVEIK: 20

Please examine the following record next.
Given item FLD129 (antibody, V domains shown) VH: EVQLVESGGGLVQPGRSLRLSCAASGFTFSDFWMSWVRQAPGKGLEWVANIDQDGNERFYADSVKGRFTISRDNAKNSLYLQMTSLRADDTAVYYCARDGREGYFYGSGSFYNLKGLNWGQGTLLTVSS VL: QSVLTQPPSVSAAPGQRVTISCSGTSSNIGKNYVSWYQQLPGAAPKLLIYDNDKRPSGIPDRFSGSKSGTSATLGITGLQTGDEADYYCGTWDSSLSVGMFGGGTRLTVL , the value recorded as its Reciprocal neutralising titre of culture supernatant (reciprocal titre) is 1450
